- experimental-protocol: Murine serum stability assay
- Type: in vitro ADME, mouse (CD-1)
- condition-context: male, CD-1, mouse, mouse serum, male CD-1 mouse serum, 37° C.; read-out: Murine serum stability assay, T1/2
observed-property: half-life
Express the reported value numerically, then name its unit.

input: // lookup half-life for CC(C)C[C@H](NC(=O)[C@H](C)NC(=O)[C@@H]1CCCN1C(=O)[C@H](CC(=O)O)NC(=O)[C@H](CCCNC(=N)N)NC(=O)[C@H](CC(C)C)NC(=O)[C@@H]1CCCN1C(=O)[C@H](C)NC(=O)[C@H](CC(=O)O)NC(=O)[C@H](Cc1c[nH]c2ccccc12)NC(=O)[C@H](CCCNC(=N)N)NC(=O)[C@@H]1CCCN1C(=O)[C@H](C)N)C(=O)N[C@@H](CCCNC(=N)N)C(=O)N[C@@H](CCC(N)=O)C(=O)N[C@@H](Cc1ccccc1)C(=O)N[C@@H](CC1CCC1)C(=O)O
output: 7.73 min

====

- experimental-protocol: Murine serum stability assay
- Assay type: in vitro ADME, mouse (CD-1)
- condition-context: male, CD-1, mouse, mouse serum, male CD-1 mouse serum, 37° C.; read-out: Murine serum stability assay, T1/2
observed-property: half-life (min)
Number in min, nothing else.

input: Can you look up the measured half-life of CC(C)C[C@H](NC(=O)[C@H](CC(C)(C)C)NC(=O)[C@H](CCC(N)=O)NC(=O)[C@H](CCCNC(=N)N)NC(=O)[C@H](CC(C)C)NC(=O)[C@H](C)NC(=O)[C@@H]1CCCN1C(=O)[C@H](CC(=O)O)NC(=O)[C@H](CCCNC(=N)N)NC(=O)[C@H](CC(C)C)NC(=O)[C@@H]1CCCN1C(=O)[C@H](C)NC(=O)[C@H](CC(=O)O)NC(=O)[C@H](Cc1c[nH]c2ccccc12)NC(=O)[C@H](CCCNC(=N)N)NC(=O)[C@@H]1CCCN1C(=O)[C@H](C)N)C(=O)O for me?
output: 11

input: Which half-life is listed for CCCC[C@H](NC(=O)[C@@H]1CSSC[C@H](NC(=O)[C@H](Cc2c[nH]cn2)NC(=O)[C@H](Cc2ccccc2)NC(=O)[C@H](CC(N)=O)NC(=O)[C@H](CCCNC(=N)N)NC(C)=O)C(=O)N[C@@H](CCCNC(=N)N)C(=O)N[C@@H](C)C(=O)N[C@@H](CCC(N)=O)C(=O)N1)C(=O)N[C@@H](CCCNC(=N)N)C(=O)N[C@@H](CCC(N)=O)C(=O)N[C@H](C(=O)N[C@@H](CC(C)(C)C)C(=O)O)C(C)(C)C ?
output: 13.5

====

- experimental-protocol: Murine serum stability assay
- Assay type: in vitro ADME, mouse (CD-1)
- condition-context: male, CD-1, mouse, serum, 37° C., read-out: Murine serum stability assay, T1/2
observed-property: half-life (min)
Write the answer as a number in min, unit excluded.

input: // returns reported half-life for input CCCC[C@@H]1NC(=O)[C@H](CCCNC(=N)N)NC(=O)[C@H](Cc2c[nH]cn2)NC(=O)[C@H](CC(N)=O)NC(=O)[C@H](C)NC(=O)[C@@H](NC(=O)[C@@H](NC(=O)[C@H](CCCNC(=N)N)NC(C)=O)C(C)C)CSSC[C@@H](C(=O)N[C@@H](CCCNC(=N)N)C(=O)N[C@@H](CCC(N)=O)C(=O)N[C@H](C(=O)N[C@@H](CC(C)(C)C)C(=O)O)C(C)(C)C)NC(=O)[C@H]([C@@H](C)O)NC(=O)[C@H](CC(N)=O)NC1=O
output: 11.2

input: May I ask what half-life has been recorded for CCCC[C@@H]1NC(=O)[C@H](CCCCN)NC(=O)[C@H](CCCNC(=N)N)NC(=O)[C@@H](NC(=O)[C@H](Cc2ccccc2)NC(=O)[C@@H](NC(=O)[C@H](CC(N)=O)NC(=O)[C@H](CCCNC(=N)N)NC(C)=O)[C@@H](C)CC)CSSC[C@@H](C(=O)N[C@@H](CCC(=O)O)C(=O)N[C@@H](CCCNC(=N)N)C(=O)N[C@@H](CCC(N)=O)C(=O)N[C@H](C(=O)N[C@@H](CC(C)(C)C)C(=O)O)C(C)(C)C)NC1=O ?
output: 80.7

input: # get_value(readout='half-life', item= CC(C)C[C@H](NC(=O)[C@H](CC(C)C)NC(=O)[C@H](CCC(N)=O)NC(=O)[C@H](CCCNC(=N)N)NC(=O)[C@H](CC(C)C)NC(=O)[C@H](C)NC(=O)[C@@H]1CCCN1C(=O)[C@H](Cc1ccccc1)NC(=O)[C@H](CCCNC(=N)N)NC(=O)[C@H](CC(C)C)NC(=O)[C@@H]1CCCN1C(=O)[C@H](C)NC(=O)[C@H](CC(=O)O)NC(=O)[C@H](Cc1c[nH]c2ccccc12)NC(=O)[C@H](CCCNC(=N)N)NC(=O)[C@@H]1CCCN1C(=O)[C@H](C)N)C(=O)O )
output: 7.91

====

- experimental-protocol: Murine serum stability assay
- Type: in vitro ADME, mouse (CD-1)
- condition-context: male, CD-1, mouse, serum, 37° C., read-out: Murine serum stability assay, T1/2
observed-property: half-life (min)
Please respond with the number in min and leave the unit unwritten.

input: // returns reported half-life for input CC(=O)N[C@@H](CCCNC(=N)N)C(=O)N[C@H](C(=O)N[C@H]1CSSC[C@@H](C(=O)N[C@@H](CCCNC(=N)N)C(=O)N[C@@H](CCC(N)=O)C(=O)N[C@H](C(=O)N[C@@H](CC(C)(C)C)C(=O)O)C(C)(C)C)NC(=O)[C@H](C)NC(=O)[C@@H]2CCCN2C(=O)[C@H](CC(N)=O)NC(=O)[C@H](CCCNC(=N)N)NC(=O)[C@H](CC(C)C)NC(=O)[C@H](Cc2c[nH]cn2)NC(=O)[C@H](CC(N)=O)NC1=O)[C@@H](C)O
output: 19.3

====

- experimental-protocol: Murine serum stability assay
- Assay type: in vitro ADME, mouse (CD-1)
- condition-context: male, CD-1, mouse, mouse serum, male CD-1 mouse serum, 37° C.; read-out: Murine serum stability assay, T1/2
observed-property: half-life (min)
Hi! Could you send only the number? It should be in min, unit omitted.

input: What value of half-life has been reported for the following molecule? CC(C)CC[C@H](NC(=O)[C@H](CCCNC(=N)N)NC(=O)[C@H](CC(C)C)NC(=O)[C@H](C)NC(=O)[C@@H]1CCCN1C(=O)[C@H](CC(=O)O)NC(=O)[C@H](CCCNC(=N)N)NC(=O)[C@H](CC(C)C)NC(=O)[C@@H]1CCCN1C(=O)[C@H](C)NC(=O)[C@H](CC(=O)O)NC(=O)[C@H](Cc1c[nH]c2ccccc12)NC(=O)[C@H](CCCNC(=N)N)NC(=O)[C@@H]1CCCN1C(=O)[C@H](C)N)C(=O)N[C@@H](CC(C)C)C(=O)N[C@@H](CC(C)C)C(=O)O
output: 13.8

input: Which half-life is listed for CCCC[C@@H]1NC(=O)[C@H](CCCNC(=N)N)NC(=O)[C@H](CC(C)C)NC(=O)[C@H](CO)NC(=O)[C@H](C(C)C)NC(=O)[C@@H](NC(=O)[C@H](CC(=O)O)NC(=O)[C@H](CCCNC(=N)N)NC(C)=O)CSSC[C@@H](C(=O)N[C@@H](CCCNC(=N)N)C(=O)N[C@@H](CCC(N)=O)C(=O)N[C@H](C(=O)N[C@@H](CC(C)(C)C)C(=O)O)C(C)(C)C)NC(=O)[C@H](C(C)C)NC(=O)[C@H](Cc2c[nH]cn2)NC1=O ?
output: 95.2

====

- experimental-protocol: Murine serum stability assay
- Type: in vitro ADME, mouse (CD-1)
- condition-context: male, CD-1, mouse, mouse serum, male CD-1 mouse serum, 37° C.; read-out: Murine serum stability assay, T1/2
observed-property: half-life (min)
Hi! Could you send only the number? It should be in min, unit omitted.

input: Quick one: half-life for CCCC[C@H](NC(=O)[C@H](CCCNC(=N)N)NC(C)=O)C(=O)N[C@H]1CSSC[C@@H](C(=O)N[C@@H](CCCNC(=N)N)C(=O)N[C@@H](CCC(N)=O)C(=O)N[C@H](C(=O)N[C@@H](CC(C)(C)C)C(=O)O)C(C)(C)C)NC(=O)[C@H](C)NC(=O)[C@@H]2CCCN2C(=O)[C@H](CO)NC(=O)[C@H](CCCNC(=N)N)NC(=O)[C@H]([C@@H](C)CC)NC(=O)[C@@H]2CCCN2C(=O)CNC1=O ?
output: 112

input: Using the record for CC(C)C[C@H](NC(=O)[C@H](C)NC(=O)[C@@H]1CCCN1C(=O)[C@H](CC(=O)O)NC(=O)[C@H](CCCNC(=N)N)NC(=O)[C@H](CC(C)C)NC(=O)[C@@H]1CCCN1C(=O)[C@H](C)NC(=O)[C@H](CC(=O)O)NC(=O)[C@H](Cc1c[nH]c2ccccc12)NC(=O)[C@H](CCCNC(=N)N)NC(=O)[C@@H]1CCCN1C(=O)[C@H](C)N)C(=O)N[C@@H](CCCNC(=N)N)C(=O)N[C@@H](CCC(N)=O)C(=O)N[C@H](C(=O)N[C@@H](CC(C)(C)C)C(=O)O)C(C)(C)C , report its half-life.
output: 12.7

input: Entry CC(C)C[C@H](NC(=O)[C@H](CC(C)C)NC(=O)[C@H](CCO)NC(=O)[C@H](CCCNC(=N)N)NC(=O)[C@H](CC(C)C)NC(=O)[C@H](C)NC(=O)[C@@H]1CCCN1C(=O)[C@H](CC(=O)O)NC(=O)[C@H](CCCNC(=N)N)NC(=O)[C@H](CC(C)C)NC(=O)[C@@H]1CCCN1C(=O)[C@H](C)NC(=O)[C@H](CC(=O)O)NC(=O)[C@H](Cc1c[nH]c2ccccc12)NC(=O)[C@H](CCCNC(=N)N)NC(=O)[C@@H]1CCCN1C(=O)[C@H](C)N)C(=O)O has what half-life?
output: 11.2

input: Using the record for CC(C)C[C@H](NC(=O)[C@H](C)NC(=O)[C@@H]1CCCN1C(=O)[C@H](CC(=O)O)NC(=O)[C@H](CCCNC(=N)N)NC(=O)[C@H](CC(C)C)NC(=O)[C@@H]1CCCN1C(=O)[C@H](C)NC(=O)[C@H](CC(=O)O)NC(=O)[C@H](Cc1c[nH]c2ccccc12)NC(=O)[C@H](CCCNC(=N)N)NC(=O)[C@@H]1CCCN1C(=O)[C@H](C)N)C(=O)N[C@@H](CCCNC(=N)N)C(=O)N[C@@H](CCC(N)=O)C(=O)N[C@@H](CC(C)(C)C)C(=O)N[C@@H](CC(C)(C)C)C(=O)O , report its half-life.
output: 9.96

input: Could you tell me which half-life is on file for CC(C)C[C@H](NC(=O)[C@H](C)NC(=O)[C@@H]1CCCN1C(=O)[C@H](CC(=O)O)NC(=O)[C@H](CCCNC(=N)N)NC(=O)[C@H](CC(C)C)NC(=O)[C@@H]1CCCN1C(=O)[C@H](C)NC(=O)[C@H](CC(=O)O)NC(=O)[C@H](Cc1c[nH]c2ccccc12)NC(=O)[C@H](CCCNC(=N)N)NC(=O)[C@@H]1CCCN1C(=O)[C@H](C)N)C(=O)N[C@@H](CCCNC(=N)N)C(=O)N[C@@H](CCC(N)=O)C(=O)N[C@@H](CC1CC1)C(=O)N[C@@H](CC1CCC1)C(=O)O ?
output: 14.1

input: What half-life value was documented for this compound, CC[C@H](C)[C@@H]1NC(=O)[C@@H](NC(=O)CNC(=O)[C@H](CCCNC(=N)N)NC(C)=O)CSSC[C@@H](C(=O)N[C@@H](CCCNC(=N)N)C(=O)N[C@@H](CCC(N)=O)C(=O)N[C@H](C(=O)N[C@@H](CC(C)(C)C)C(=O)O)C(C)(C)C)NC(=O)[C@H](C)NC(=O)[C@H](CC(=O)O)NC(=O)[C@H](CCC(N)=O)NC(=O)[C@H](CCCNC(=N)N)NC(=O)[C@H](CCCNC(=N)N)NC(=O)[C@@H]2CCCN2C1=O ?
output: 9.26

input: Which half-life value is on record for CCCC[C@@H]1NC(=O)[C@H](CCCNC(=N)N)NC(=O)[C@H](CCCNC(=N)N)NC(=O)[C@H](CC(N)=O)NC(=O)[C@H](CCC(=O)O)NC(=O)[C@@H](NC(=O)[C@H](Cc2c[nH]c3ccccc23)NC(=O)[C@H](CCCNC(=N)N)NC(C)=O)CSSC[C@@H](C(=O)N[C@@H](CCCNC(=N)N)C(=O)N[C@@H](CCC(N)=O)C(=O)N[C@H](C(=O)N[C@@H](CC(C)(C)C)C(=O)O)C(C)(C)C)NC(=O)[C@H]([C@@H](C)O)NC(=O)[C@H](Cc2ccccc2)NC1=O ?
output: 38.1
